Form field: Percent Control (one value per entry).
tested on: MELK; details: Compound Concentration (nM):1000;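 also: KINOMEscan scanMAX binding as percent activity remaining versus control; lower means stronger binding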
observable: Percent Control (%)

[[record]]
molecule = "O=C(Nc1n[nH]c2nc(-c3ccc(O)cc3)c(Br)cc12)C1CC1 [SB-725317]"
measured_value = 100

[[record]]
molecule = "C/C(Nc1ccc(S(N)(=O)=O)cc1)=C1/C(=O)Nc2ccccc21 [GW335962X]"
measured_value = 87

[[record]]
molecule = "NS(=O)(=O)c1ccc(N/N=C2\\C(=O)Nc3ccc(-c4cnco4)cc32)cc1 [GW276655]"
measured_value = 97

[[record]]
molecule = "CC(C)COC(=O)c1ccc2c(c1)/C(=C/Nc1ccc(S(N)(=O)=O)cc1)C(=O)N2 [GW416981X]"
measured_value = 6.4

[[record]]
molecule = "COc1cc2ncnc(Nc3ccc4c(cnn4Cc4ccccc4)c3)c2cc1OC.Cl [GW282449A]"
measured_value = 100

[[record]]
molecule = "COc1ccc2[nH]c3c4[nH]c5ccc(OC)cc5c4c4c(c3c2c1)C(=O)NC4=O [GW296115X]"
measured_value = 43

[[record]]
molecule = "NS(=O)(=O)c1ccc(N/N=C2\\C(=O)Nc3ccc(C(=O)NCc4ccncc4)cc32)cc1 [GW300657X]"
measured_value = 35

[[record]]
molecule = "NS(=O)(=O)c1ccc(N/N=C2\\C(=O)Nc3ccc(Cl)cc32)cc1 [GW280670X]"
measured_value = 100

[[record]]
molecule = "C[C@@H](Oc1cc(-n2cnc3ccc(OC4CCN(C)CC4)cc32)sc1C(N)=O)c1ccccc1Cl [GSK579289A]"
measured_value = 70

[[record]]
molecule = "COc1cc(C=NNc2ncnc3c2cnn3-c2ccccc2)ccc1O [GW513184X]"
measured_value = 93

[[record]]
molecule = "CC1=C(C(=O)Nc2ccc3[nH]ncc3c2)C(c2ccc3ccccc3c2)CC(=O)N1 (centres unmarked) [GSK270822A]"
measured_value = 100

[[record]]
molecule = "O=C1Nc2ccc(C(=O)c3ccco3)cc2C1=Cc1cc(Cl)c(O)c(Cl)c1 [GW406108X]"
measured_value = 78

[[record]]
molecule = "COc1cc(/C=N/Nc2ncnc3[nH]ncc23)ccc1O [GW578748X]"
measured_value = 15

[[record]]
molecule = "CC1=C(C(=O)Nc2ccc3[nH]ncc3c2)C(c2ccc(Cl)c(Cl)c2)CC(=O)N1 (centres unmarked) [GSK299115A]"
measured_value = 88

[[record]]
molecule = "CN(C)CCNC(=O)Nc1ccc(N(C)c2ccnc(Nc3ccc(CS(C)(=O)=O)cc3)n2)cc1.Cl [GW830900A]"
measured_value = 56

[[record]]
molecule = "Cl.O=C(Nc1ccc(Oc2ccc3[nH]c(NC(=O)c4ccccc4)nc3c2)cc1)Nc1cc(C(F)(F)F)ccc1F [GW709042A]"
measured_value = 68

[[record]]
molecule = "COc1cc(C)c(N(C)C(=O)CN(C)C)cc1Nc1nc(Nc2cccc(F)c2C(N)=O)c2cc[nH]c2n1 [GSK2219385]"
measured_value = 100

[[record]]
molecule = "CN1CCN(C(=O)c2ccc(NC(=O)Nc3ccc(N(C)c4ccnc(Nc5ccc(CS(C)(=O)=O)cc5)n4)cc3)cc2)CC1.Cl [GW830263A]"
measured_value = 81

[[record]]
molecule = "COc1ccccc1-c1cc(/C=C2\\C(=O)Nc3ncc(Br)cc32)cc(Br)c1O [GW442130X]"
measured_value = 94

[[record]]
molecule = "CCn1c(-c2nonc2N)nc2c(C#CC(C)(C)O)nc(OCCNC)cc21.Cl [GSK949675]"
measured_value = 45

[[record]]
molecule = "Cl.O=S1CCN(Cc2ccc(-c3ccc4ncnc(Nc5ccc(OCc6ccccc6)c(F)c5)c4c3)o2)CC1 [GW576924A]"
measured_value = 95

[[record]]
molecule = "Nc1ncnc2occ(-c3ccc(NC(=O)Nc4cc(C(F)(F)F)ccc4F)cc3)c12 [GW770249X]"
measured_value = 53

[[record]]
molecule = "COc1cc(N2CCN(C(C)C)CC2)ccc1Nc1nc(Nc2ccc(F)cc2C(=O)NC[C@@H](O)CO)c2cc[nH]c2n1 [GSK1392956A]"
measured_value = 57

